The measured values listed here are drawn from patent US20220056137A1.

Assignment: determine reported pKd for the given binders.
# test_target: T1, human PD-L1 protein (soluble) (human, UniProt Q9NZQ7 19-239)
# T1 construct: also called PD-L1 (R&D Systems); His-tagged PD-L1 protein
# T1 sequence (Q9NZQ7 19-239 limits assumed): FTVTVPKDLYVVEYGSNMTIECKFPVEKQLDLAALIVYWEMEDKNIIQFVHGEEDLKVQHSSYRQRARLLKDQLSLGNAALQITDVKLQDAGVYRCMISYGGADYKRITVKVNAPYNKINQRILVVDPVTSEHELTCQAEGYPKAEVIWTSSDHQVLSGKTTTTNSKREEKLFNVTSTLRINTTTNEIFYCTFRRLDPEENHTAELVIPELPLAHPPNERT
# experimental_protocol: SPR, mAb captured on anti-human IgG Fc, PD-L1 as analyte;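 further: array SPR with mAb supernatants captured at several densities, PD-L1 injected for 5 min then 15 min dissociation, non-regenerative kinetic series, double-referenced against interspot surface and blank injection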
Give bare numbers, as −log10 of the molar value.

List the reported pKd of each binder below.
1. antibody A10 (antibody, V domains shown, Tested as full-length mAb made in CHO cells; also called L10H10) VH: QVQLVESGGGVVQPGRSLRLSCAASGFTFSSYGMHWVRQAPGKGLEWVAVIWYDGINKYYADSVKGRFTISRDNSKNTLYLQMNSLRAEDTAVYYCARDSTASPFDYWGQGTLVTVSS VL: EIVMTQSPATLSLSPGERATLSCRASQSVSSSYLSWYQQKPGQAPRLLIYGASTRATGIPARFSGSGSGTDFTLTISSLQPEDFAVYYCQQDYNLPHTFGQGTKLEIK
2. antibody A13 (antibody, V domains shown, Tested as full-length mAb made in CHO cells; also called L13H13) VH: QVQLQESGPGLVKPSETLSLTCTVSGGSISSYYWSWIRQPPGKGLEWIGYIHYSGSTKYNPSLKSRVTISLDTSKNQFSLKLSSVTAADTAVYYCARDRGIGAFDIWGQGTMVTVSS VL: EIVMTQSPATLSLSPGERATLSCRASQSVSSSYLSWYQQKPGQAPRLLIYGASTRATGIPARFSGSGSGTDFTLTISSLQPEDFAVYYCQQDYNLITFGQGTRLEIK
3. antibody A6 (antibody, V domains shown, Tested as full-length mAb made in CHO cells; also called L6H6) VH: QVQLVESGGGVVQPGRSLRLSCAASGFTFSSYGMHWVRQAPGKGLEWVAVIWFDGSNKYYADSVKGRFTISRDNSKNTLYLQMNSLRAEDTAVYYCARDKTVSPFDIWGQGTMVTVSS VL: EIVMTQSPATLSLSPGERATLSCRASQSVSSSYLSWYQQKPGQAPRLLIYGASTRATGIPARFSGSGSGTDFTLTISSLQPEDFAVYYCQQDYNLFTFGPGTKVDIK

Out:
1: 7.39; 2: 6.90; 3: 7.80
